# Tested on: Community 8
# Experiment summary: relative growth (AUC of 72 h growth curve relative to DMSO control, dAUC) (ratio); higher = more growth (less inhibition), active = hit call of the paper
# Measurement context: 20 µM
The threshold is inclusive: relative growth of exactly 1 counts as Met; values below receive Not met.

The following molecules have reported results that may help.
Molecule: N#CC(CCc1ccc(Cl)cc1)(Cn1cncn1)c1ccccc1 (stereo unspecified)
Class: Not met
//
Molecule: COP(N)(=O)SC (stereo unspecified)
Class: Not met
//
Molecule: CCOc1cc(Oc2ccc(C(F)(F)F)cc2Cl)ccc1[N+](=O)[O-]
Class: Met
//
Molecule: COc1cc(OC)nc(NC(=O)NS(=O)(=O)c2ncccc2C(=O)N(C)C)n1
Class: Met

Exercise: Dear colleague, could you confirm whether CC(C)NC(=O)N1CC(=O)N(c2cc(Cl)cc(Cl)c2)C1=O has relative growth at or above 1?
Solution: Not met

Exercise: Ok, now CON(C)C(=O)Nc1ccc(Cl)c(Cl)c1
Solution: Met

* * *

# Test system: Argrobacterium 1 (Agrobacterium sp.)
# Experiment summary: relative growth (AUC of 72 h growth curve relative to DMSO control, dAUC) (ratio); higher = more growth (less inhibition), active = hit call of the paper
# Measurement context: 20 µM
Here the recorded relative growth is given for each entry.
Note: the reply should be a number with no unit written.

Worked cases, relative growth given:
Compound: CCOC(=O)CC(SP(=S)(OC)OC)C(=O)OCC (centres undefined)
Result number: 1.01
--
Compound: CC1(C)[C@H](C(=O)O[C@H](C#N)c2cccc(Oc3ccccc3)c2)[C@@H]1C=C(Br)Br
Result number: 1.09
--
Compound: CC(COc1ccc(Oc2ccccc2)cc1)Oc1ccccn1 (centres undefined)
Result number: 1.09

Exercise: Quick check: relative growth of CCC(C)(C)C(=O)OC1=C(c2ccc(Cl)cc2Cl)C(=O)OC12CCCCC2 ?
Solution: 1.01

Exercise: Ok, now COC(=O)N(C(=O)N1CO[C@@]2(C(=O)OC)Cc3cc(Cl)ccc3C2=N1)c1ccc(OC(F)(F)F)cc1
Solution: 1.03

Exercise: Ok, now COCC(=O)N(c1c(C)cccc1C)[C@H](C)C(=O)OC
Solution: 1

Exercise: Ok, now COCC(C)N(C(=O)CCl)c1c(C)csc1C (centres undefined)
Solution: 1.02

Exercise: Ok, now Oc1ccccc1-c1ccccc1
Solution: 0.914

Exercise: Ok, now CC(C1CC1)C(O)(Cn1cncn1)c1ccc(Cl)cc1 (centres undefined)
Solution: 1.09

Exercise: Ok, now CC1COC(Cn2cncn2)(c2ccc(Oc3ccc(Cl)cc3)cc2Cl)O1 (centres undefined)
Solution: 1.04

Exercise: Ok, now Cc1c(COC(=O)[C@@H]2[C@H](/C=C(\Cl)C(F)(F)F)C2(C)C)cccc1-c1ccccc1 (racemic)
Solution: 1.06

Exercise: Ok, now CCCC(Cn1cncn1)c1ccc(Cl)cc1Cl (centres undefined)
Solution: 1.15

Exercise: Ok, now COP(=S)(OC)Oc1nc(Cl)c(Cl)cc1Cl
Solution: 1.05

Exercise: Ok, now COP(=O)(OC)OC=C(Cl)Cl
Solution: 0.977

Exercise: Ok, now COP(=O)(NC(C)=O)SC (centres undefined)
Solution: 1.03

* * *

Here the recorded relative growth is given for each entry.
# Test system: Sphingomonas 2 (Sphingomonas sp.)
# Experiment summary: relative growth (AUC of 72 h growth curve relative to DMSO control, dAUC) (ratio); higher = more growth (less inhibition), active = hit call of the paper
# Measurement context: 20 µM
Note: the reply should be a number with no unit written.

Worked cases, relative growth given:
Compound: CCOC(=O)OC1=C(c2cc(C)ccc2C)C(=O)N[C@]12CC[C@@H](OC)CC2
System tested: Sphingomonas 2 (Sphingomonas sp.)
Result number: 1.04
--
Compound: COc1cccc(C(=O)NN(C(=O)c2cc(C)cc(C)c2)C(C)(C)C)c1C
System tested: Sphingomonas 2 (Sphingomonas sp.)
Result number: 0.977
--
Compound: CN1COCN(Cc2cnc(Cl)s2)/C1=N\[N+](=O)[O-]
System tested: Sphingomonas 2 (Sphingomonas sp.)
Result number: 1.05

Exercise: Quick check: relative growth of CCOCn1c(-c2ccc(Cl)cc2)c(C#N)c(Br)c1C(F)(F)F ?
Solution: 0.848

Exercise: Ok, now COC(=O)NC(=S)Nc1ccccc1NC(=S)NC(=O)OC
Solution: 1.01

Exercise: Ok, now CC1COC(Cn2cncn2)(c2ccc(Oc3ccc(Cl)cc3)cc2Cl)O1 (stereo not given)
Solution: 1.06

Exercise: Ok, now Fc1ccc([C@]2(Cn3cncn3)O[C@H]2c2ccccc2Cl)cc1 (racemic)
Solution: 1.01

Exercise: Ok, now O=C(NC(=O)c1c(F)cccc1F)Nc1ccc(Cl)cc1
Solution: 1.02

Exercise: Ok, now COc1ncc(F)c2nc(S(=O)(=O)Nc3c(F)cccc3F)nn12
Solution: 1.04

Exercise: Ok, now CCNc1nc(Cl)nc(NC(C)C)n1
Solution: 1.02

* * *

# System: Pseudomonas 6 (Pseudomonas sp.)
# Experiment summary: relative growth (AUC of 72 h growth curve relative to DMSO control, dAUC) (ratio); higher = more growth (less inhibition), active = hit call of the paper
# Measurement context: 20 µM
Here the recorded relative growth is given for each entry.
Note: the reply should be a number with no unit written.

Worked cases, relative growth given:
Molecule: CC1(C)CON(Cc2ccccc2Cl)C1=O
System tested: Pseudomonas 6 (Pseudomonas sp.)
Measure name: relative growth
Result number: 1.13

Molecule: CNC(=O)CSP(=S)(OC)OC
System tested: Pseudomonas 6 (Pseudomonas sp.)
Measure name: relative growth
Result number: 1.19

Molecule: OC(Cn1cncn1)(c1ccc(F)cc1)c1ccccc1F (stereo unspecified)
System tested: Pseudomonas 6 (Pseudomonas sp.)
Measure name: relative growth
Result number: 0.961

Molecule: CN1COCN(Cc2cnc(Cl)s2)/C1=N\[N+](=O)[O-]
System tested: Pseudomonas 6 (Pseudomonas sp.)
Measure name: relative growth
Result number: 1.1

Exercise: Quick check: relative growth of CCOC(=O)CC(SP(=S)(OC)OC)C(=O)OCC (stereo unspecified) ?
Solution: 1.09

Exercise: Ok, now C[N+](C)(C)CCCl
Solution: 1.07

* * *

# Test system: Pseudomonas 2 (Pseudomonas vancouverensis)
# Experiment summary: relative growth (AUC of 72 h growth curve relative to DMSO control, dAUC) (ratio); higher = more growth (less inhibition), active = hit call of the paper;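 active = growth AUC significantly below the DMSO wells by Dunnett test; inactive = the rest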
# Measurement context: 20 µM
Please state which outcome applies, choosing from 1 for active, -1 for inactive

Compound: N#Cc1c[nH]cc1-c1cccc2c1OC(F)(F)O2
System tested: Pseudomonas 2 (Pseudomonas vancouverensis)
Class: -1

Exercise: I'd appreciate the recorded outcome for CCCN(CCOc1c(Cl)cc(Cl)cc1Cl)C(=O)n1ccnc1 from this test.
Solution: -1

* * *

Here the recorded relative growth is given for each entry.
# Tested on: Neobacillus 1 (Neobacillus soli)
# Experiment summary: relative growth (AUC of 72 h growth curve relative to DMSO control, dAUC) (ratio); higher = more growth (less inhibition), active = hit call of the paper
# Measurement context: 20 µM
Note: the reply should be a number with no unit written.

Worked cases, relative growth given:
Smiles structure: CO/C=C(/C(=O)OC)c1ccccc1COc1cccc(C(F)(F)F)n1
Measure name: relative growth
Result number: 1.01
//
Smiles structure: COC(=O)c1ccccc1S(=O)(=O)NC(=O)Nc1nc(C)nc(OC)n1
Measure name: relative growth
Result number: 1.11
//
Smiles structure: Fc1ccc(Oc2ccnc3cc(Cl)cc(Cl)c23)cc1
Measure name: relative growth
Result number: 1.09
//
Smiles structure: CO/C=C(/C(=O)OC)c1ccccc1Oc1cc(Oc2ccccc2C#N)ncn1
Measure name: relative growth
Result number: 1.01
//
Smiles structure: CCCCOC(=O)[C@H](C)Oc1ccc(Oc2ccc(C#N)cc2F)cc1
Measure name: relative growth
Result number: 1.03
//
Smiles structure: CCC(C)(C)C(=O)OC1=C(c2ccc(Cl)cc2Cl)C(=O)OC12CCCCC2
Measure name: relative growth
Result number: 1

Below: the item to evaluate.
Exercise: Quick check: relative growth of CCOC(=O)OC1=C(c2cc(C)ccc2C)C(=O)N[C@]12CC[C@@H](OC)CC2 ?
Solution: 1.09

* * *

# Tested on: Sphingomonas 2 (Sphingomonas sp.)
# Experiment summary: relative growth (AUC of 72 h growth curve relative to DMSO control, dAUC) (ratio); higher = more growth (less inhibition), active = hit call of the paper
# Measurement context: 20 µM
Measure name: relative growth
Note: the reply should be a number with no unit written.

Worked cases, relative growth given:
Compound: CNC(=O)Oc1cccc2ccccc12
System tested: Sphingomonas 2 (Sphingomonas sp.)
relative growth: 0.986
//
Compound: COc1ccc(-c2ccccc2)cc1NNC(=O)OC(C)C
System tested: Sphingomonas 2 (Sphingomonas sp.)
relative growth: 0.92
//
Compound: CC(C1CC1)C(O)(Cn1cncn1)c1ccc(Cl)cc1 (stereo not given)
System tested: Sphingomonas 2 (Sphingomonas sp.)
relative growth: 1.13
//
Compound: CCOc1cc(Oc2ccc(C(F)(F)F)cc2Cl)ccc1[N+](=O)[O-]
System tested: Sphingomonas 2 (Sphingomonas sp.)
relative growth: 1.2
//
Compound: O=C(NC(=O)c1c(F)cccc1F)Nc1ccc(OC(F)(F)C(F)OC(F)(F)F)c(Cl)c1 (stereo not given)
System tested: Sphingomonas 2 (Sphingomonas sp.)
relative growth: 1.11
//
Compound: O=C1c2ccccc2C(=O)N1SC(Cl)(Cl)Cl
System tested: Sphingomonas 2 (Sphingomonas sp.)
relative growth: 0.999
//
Compound: Fc1ccc(Oc2ccnc3cc(Cl)cc(Cl)c23)cc1
System tested: Sphingomonas 2 (Sphingomonas sp.)
relative growth: 0.975
//
Compound: C/C(=N\C#N)N(C)Cc1ccc(Cl)nc1
System tested: Sphingomonas 2 (Sphingomonas sp.)
relative growth: 1.03
//
Compound: CCSC(C)CC1CC(=O)C(/C(CC)=N/OC/C=C/Cl)=C(O)C1 (mixture of isomers)
System tested: Sphingomonas 2 (Sphingomonas sp.)
relative growth: 1.18
//
Compound: CC1(C)C(C=C(Cl)Cl)C1C(=O)OC(C#N)c1cccc(Oc2ccccc2)c1 (stereo not given)
System tested: Sphingomonas 2 (Sphingomonas sp.)
relative growth: 1.03

Exercise: Quick check: relative growth of CC(C)OC(=O)C(C(=O)OC(C)C)=C1SCCS1 ?
Solution: 1.1

Exercise: Ok, now CC(C)N1C(=O)c2ccccc2NS1(=O)=O
Solution: 1.01

Exercise: Ok, now CS(=O)(=O)c1ccc(C(=O)C2C(=O)CCCC2=O)c([N+](=O)[O-])c1
Solution: 1.1

Exercise: Ok, now C#CCOc1ccc(CCNC(=O)C(OCC#C)c2ccc(Cl)cc2)cc1OC (stereo not given)
Solution: 1.13

Exercise: Ok, now Oc1ccc(Cl)cc1Cc1cc(Cl)ccc1O
Solution: 0.0145
